Tested on: HOP-92 NSCLC
Assay: NCI tumour cell line growth inhibition, 48 h

MOLECULE: O=[N+]([O-])/C=C/c1cn(CCCCCCCCn2cc(/C=C/[N+](=O)[O-])c3ccccc32)c2ccccc12
ASSAYED TARGET: HOP-92 NSCLC
TGI: > 10 µM
--
MOLECULE: C/C(=C\C(=O)O)C(=O)N(C)c1ccccc1I
ASSAYED TARGET: HOP-92 NSCLC
TGI: > 100 µM
--
MOLECULE: Cc1cc(S(=O)(=O)NC2=NCc3c(F)cccc3N2)c(S)cc1Cl
ASSAYED TARGET: HOP-92 NSCLC
TGI: > 100 µM
--
MOLECULE: CC1CC[C@@]2(OC1)OC1C[C@H]3[C@@H]4CC=C5C[C@@H](OC6OC(CO)C(OC7OC(CO)C(O)C(O)C7O)C(O)C6OC6OC(C)C(O)C(O)C6O)CC[C@]5(C)[C@H]4CC[C@]3(C)C1[C@@H]2C (stereo partly drawn)
ASSAYED TARGET: HOP-92 NSCLC
TGI: 2.12 µM
--
MOLECULE: CN(Cc1ccccc1)C(=S)S
ASSAYED TARGET: HOP-92 NSCLC
TGI: > 100 µM
--
MOLECULE: COc1cc(/C=C2\C(=O)N(c3ccc(Cl)cc3)C(c3ccccc3)S2(=O)=O)cc(OC)c1OC (stereo not drawn)
ASSAYED TARGET: HOP-92 NSCLC
TGI: > 100 µM
--
MOLECULE: CCOC(=O)/C=C(/OCC)[C@@H]1C(C(=O)c2ccc(Cl)cc2)[C@@H]1/C(=C\C(=O)OCC)OCC (stereo partly drawn)
ASSAYED TARGET: HOP-92 NSCLC
TGI: 17.9 µM
--
MOLECULE: CC(=O)N1CN2C(=O)CCC2c2cc(C)ccc21 (stereo not drawn)
ASSAYED TARGET: HOP-92 NSCLC
TGI: > 100 µM
